# assay-comment: protein stability index of a GFP-peptide fusion (yeast GPS) (PSI 1-4); higher = more stable; sorted into four equal gates, so the index is relative within each strain
# condition-details: doa10∆
Note to self: values exactly at 3 are MET. So protein stability index at or above 3 is MET, below is NOT MET.

construct_sequence="DLVLQILEDTATMSVFL [RRI2]" classification="NOT MET"
construct_sequence="IKQTFKNDLFVIWSEDN [RPO21]" classification="NOT MET"
construct_sequence="HGDAAVLLVEKYGAEYD [NAS6]" classification="NOT MET"
construct_sequence="LLKKKDDPSKVRLLCRS [YLR335W/NUP2]" classification="NOT MET"
construct_sequence="QGLNILEWLENPSNTPD [FAS1]" classification=MET
construct_sequence="MNTTLGSIGSRKYSFNY [YAR002W/NUP60]" classification="NOT MET"
construct_sequence="GGESDSALILMYKGFGL [UBP6]" classification=MET
construct_sequence="PKLKEGALHFVQQSEKL [YIL149C/MLP2]" classification="NOT MET"
construct_sequence="MARTKQTARKSTGGKAP [HHT1]" classification=MET
construct_sequence="SETPLQKTVNLKNIMKV [RPN4]" classification="NOT MET"
construct_sequence="QQGQNMSEQQWREQLRN [ROX3]" classification="NOT MET"
construct_sequence="MIAKEVKTSPDAKKCIA [FAS1]" classification="NOT MET"
construct_sequence="LGYKAKQGFVIYRVRVR [RPL15A]" classification="NOT MET"
construct_sequence="DNLFGETESSVSNNEAN [SWI3]" classification=MET
construct_sequence="LGCTLVTLLANVRALYM [RMP1]" classification="NOT MET"
construct_sequence="EKRATSPLLESDSIEKI [PUP2]" classification=MET
construct_sequence="PPGTGKTLCARAVANRT [RPT1]" classification="NOT MET"
construct_sequence="SLVIIILVKRYSIEMKP [ECM29]" classification="NOT MET"
construct_sequence="HGGKMKPEIDENGTLLV [RPR2]" classification=MET
construct_sequence="YMRLWEINETEFIRCGC [RMP1]" classification=MET
